Reference for the values: patent US20110038881A1

# Study target: HLA-DRB1*0401 (human)
# Assay info: competition binding
# Condition set: modification not given

{"Binder": "KDYIALKEDLRSWTA [p25]", "Value qualifier": "=", "IC50 / nM": 325}
{"Binder": "APWIEQEGPEYWDGE [p10]", "Value qualifier": ">", "IC50 / nM": 100000}
{"Binder": "VEWLRRYLENGKETL [p35*]", "Value qualifier": ">", "IC50 / nM": 100000}
{"Binder": "GTFQKWAAVVVPSGQ [p45*]", "Value qualifier": "=", "IC50 / nM": 99}
{"Binder": "EDLRSWTAADMAAQT [p27]", "Value qualifier": ">", "IC50 / nM": 100000}
{"Binder": "CDVGSDWRFLRGYHQ [p19]", "Value qualifier": "=", "IC50 / nM": 543}
{"Binder": "AHVAEQLRAYLEGTC [p31]", "Value qualifier": ">", "IC50 / nM": 100000}
